Values were extracted from paper PMC8471300.

# measurement-target: CK1δ (aa 1-294) (Homo sapiens)
# Sequence (P48730 1-294): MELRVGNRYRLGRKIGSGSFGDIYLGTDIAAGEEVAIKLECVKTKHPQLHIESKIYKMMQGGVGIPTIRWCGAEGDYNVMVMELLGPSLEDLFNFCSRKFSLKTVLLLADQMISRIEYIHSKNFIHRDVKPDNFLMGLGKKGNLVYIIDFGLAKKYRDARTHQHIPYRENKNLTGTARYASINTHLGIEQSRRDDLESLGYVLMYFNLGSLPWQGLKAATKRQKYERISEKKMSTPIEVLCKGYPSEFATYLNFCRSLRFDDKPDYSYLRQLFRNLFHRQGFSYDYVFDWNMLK
pIC50: −log10 of the molar value.
property-label: pIC50

What value of pIC50 has been reported for the following molecule? Cc1c(C)n(-c2cccnc2)c2ncnc(N)c12
4.87

A. N#Cc1c(N)nsc1N1CCOCC1
B. Nc1n[nH]c2cccc(F)c12
C. Nc1ncnc2sc3c(c12)CCCC3
Task field, ranking: reported pIC50, descending order. Please list each label once, in the requested order.
A, C, B

----------
# measurement-target: CK1δ (aa 1-294) (Homo sapiens)
# Construct: Compounds were evaluated towards CK1δ (aa 1-294, Merck Millipore); purchased Merck Millipore
# test-method-notes: CK1δ KinaseGlo luminescence enzymatic assay
# Assay type: biochemical
# particulars: ligand at 40 μM; mean of two independent experiments in duplicate; read-out: % CK1δ residual activity - fixed dose 40 μM
property-label: remaining activity at 40 µM (%)

What value of remaining activity at 40 µM has been reported for the following compound? Nc1ncnc2nccc(O)c12 [Compound 59]
24.7

What value of remaining activity at 40 µM has been reported for the following compound? N#Cc1c(N)nsc1N1CCOCC1 [Compound 28]
37.8

What value of remaining activity at 40 µM has been reported for the following compound? Cc1c(C)n(-c2cccnc2)c2ncnc(N)c12 [Compound 52]
28.3

P. Nc1n[nH]c2cccc(F)c12 [Compound 63]
Q. Nc1ncnc2sc3c(c12)CCCC3 [Compound 37]
For the two items P and Q , which reports the higher remaining activity at 40 µM value? Indicate your choice by writing its label.
P
